Test: Equilibrium solubility by the shake-flask method with HPLC-UV analysis
Type: physicochemical
Conditions: simulated colonic fluid pH 7.8, 37 °C, shake-flask, n = 3
readout.type: [PZQ] in SCF attained in 24 hours

Form field [PZQ] in SCF attained in 24 hours, entry O=C(C1CCCCC1)N1CC(=O)N2CCc3ccccc3C2C1.O=C(O)c1ccc(O)cc1 (centres unmarked) [Co-Crystal 5, PZQ – 4-HYDROXYBENZOIC ACID (4HBA)] : 247.22 µg/mL

Form field [PZQ] in SCF attained in 24 hours, entry O=C(C1CCCCC1)N1CC(=O)N2CCc3ccccc3C2C1.O=C(C1CCCCC1)N1CC(=O)N2CCc3ccccc3C2C1.O=C(O)c1cccc(O)c1 (centres unmarked) [Co-Crystal 9, PZQ – 3-HYDROXYBENZOIC ACID (3HBA) (2:1)] : 257.95 µg/mL

Form field [PZQ] in SCF attained in 24 hours, entry O=C(C1CCCCC1)N1CC(=O)N2CCc3ccccc3C2C1.O=C(O)c1cccc(O)c1 (centres unmarked) [Co-Crystal 7, PZQ – 3-HYDROXYBENZOIC ACID (3HBA) (1:1)] : 251.67 µg/mL

Form field [PZQ] in SCF attained in 24 hours, entry O=C(C1CCCCC1)N1CC(=O)N2CCc3ccccc3C2C1.O=C(O)C(=O)O (centres unmarked) : 252.98 µg/mL

The record that follows has no [PZQ] in SCF attained in 24 hours shown yet.
Form field [PZQ] in SCF attained in 24 hours, entry O.O=C(C1CCCCC1)N1CC(=O)N2CCc3ccccc3C2C1.O=C(O)c1ccccc1O (centres unmarked) [Co-Crystal 6, PZQ – SALICYLIC ACID (SAL) – H2O] : 258.43 µg/mL
